Hello, the source for this data is patent US10765674B2, in case you need it.

test: Plasma kinetics of TMC278 in beagle dogs after single intramuscular administration; format: in vivo; settings: male, beagle, dog, plasma, intramuscular, 2.5 mg/kg, dog No. 16854; 192 h after dose; single IM 2.5 mg/kg, aqueous 30% DMA/50% PEG400 solution
QUANTITY KIND: concentration at 192 h (ng/mL)

- Cc1cc(C=CC#N)cc(C)c1Nc1ccnc(Nc2ccc(C#N)cc2)n1: 2.8

====

assay: Plasma kinetics of TMC278 in beagle dogs after single intramuscular administration; type: in vivo; details: male, beagle, dog, plasma, im, 2.5 mg/kg, dog No. 16854; single IM 2.5 mg/kg, aqueous 30% DMA/50% PEG400 solution; read-out: AUC0-312 h
QUANTITY KIND: AUC(0-t) (ng·h/mL)

* Cc1cc(C=CC#N)cc(C)c1Nc1ccnc(Nc2ccc(C#N)cc2)n1 | 2120
